Assay: Biodistribution studies
Type: in vivo
Settings: female, BALB/c nude, mouse, tumor/kidney, iv, 7.4 MBq, total radioactivity; 1 h postinjection; read-out: Tumor-to-normal tissue uptake ratio T/K
Where a SMILES comes first, the peptide text is derived from it. Bridges are numbered along the chain shown (N, C = ends).
measured attribute: tissue to tissue ratio at 1 h
When you answer, write just the number.

Which value of tissue to tissue ratio at 1 h has been reported for N=C(N)NCCC[C@@H]1NC(=O)CNC(=O)[C@H](CC(N)=O)NC(=O)[C@@H](NC(=O)CNC(=O)CNC(=O)[C@@H](N)Cc2ccc(O)cc2)CSSC[C@@H](C(=O)O)NC1=O [^99mTc-NGR, metal not drawn] (H-YGGCNGRC-OH; disulfide 4-8) in the records? 0.32
